Just for reference, the supplement of paper PMC9170038 is where these values come from.

- Tested on: K4 kissing-loop RNA reporter
- Method: apparent KD of K4 kissing-loop reporter; higher = weaker reporter binding
- Stated conditions: Eterna round: R107; input ligand: tryptophan 2.4 mM
Listing: apparent KD of K4 kissing-loop reporter of selected sequences
Readout kind: apparent KD of K4 kissing-loop reporter

Sequence input	Result
UGACAUUGCUCAGAUACCAGACACGAGGAUCACCCGUGUGCCAAAACGUACUAAAUAAGUGUCCCUUGGCAGCUGAGCAAUGUCU [TheoBX 13]	0.0478 µM
UGACUGGACUGAAGGAGCGCGCGAGACAAAGUCUCGAACUGCUAGUGAUGUUAGCAAAUAACGCAGGUAGGUCGCAGUCUAGUCU [ArgBS 11 #SwitchBubble #StaticStem #DoubleMagnet]	0.124 µM
GGGCCUGGGCCCGUAAGGGCCUGGGCCCGUUAGGAUAUGACGUGAUUCAGAAGGGAUGGGUGGAGUGAUGUUCCACCCGAGAGGG [#2 Same State - FMN A Attempt #24 (HarryS)]	0.0967 µM
GGAUAGGAUAGAGGAUAUGGGCUAGGCAAGAAUAACUUGUCUAGCAAAUCCAUGAGGAGUGAUGUUCCAGAAGGCUAUCCUAUCG [FmnBX 1 U9+A77]	0.155 µM
AGAACUGUCUUGGAUACCAGUGAUGUUGGUAUCGAUGUGUGAGUGCAAAGCGUCCCAGAGUGCCCUUGGCAGCUAAGACUGUUCA [#16 K4 Theophylline B Exclusion]	0.259 µM

====

- System: K4 kissing-loop RNA reporter;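 also: bound reporter read as fluorescence of individual clusters on recovered sequencing chips by microscopy, with normalized cluster intensities fitted with a binding model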
- Method: apparent KD of K4 kissing-loop reporter; higher = weaker reporter binding
- Stated conditions: Eterna round: R107; input ligand: arginine 13.2 mM
Note: every record was labeled by where its apparent KD of K4 kissing-loop reporter sits among c1 (below 200 nM), c2 (200 nM to below 300 nM), c3 (300 nM or more)

Sequence input	Experimental target	Qualitative label
AGAACUGUCUUGGAUACCAGUGAUGUUGGUAUCGAUGUGUGAGUGCAAAGCGUCCCAGAGUGCCCUUGGCAGCUAAGACUGUUCA [#16 K4 Theophylline B Exclusion]	K4 kissing-loop RNA reporter	c2
GAUUGUGAUGGAAACAUCGCAAUCUCUGAAGGAGCGCGUGAAAACGCAGGUAGGUCGCAGAACGACAAAGACAGUGAUGUUGUCA [Ex Arginine A K4 5]	K4 kissing-loop RNA reporter	c2
GCCGUACGCAUGGAUACCAGAGAUGUUAAUCUCGAUGCCAGUGAUGUUGGCUUUAGCUAUCUCCCUUGGCAGCCAUGCGUACGGC	K4 kissing-loop RNA reporter	c3
AAACAACUUGACGAUACCAGCUUACUCGGCAAGCCAGUGAUGUUGGUGAAAAGGAGUCAAAGCCCUUGGCAGCGUCGAAGGUCUG [Raatarerin]	K4 kissing-loop RNA reporter	c2
UAGUCAUACAGAGGAUAUCGUAUGAGUGAUGUUCAUACGAUAUAAUCUAAUUGUAUAGAUGUUCGACGAGAAGGCUGUAUGACUA [FMN B Ex t1a]	K4 kissing-loop RNA reporter	c1
ACAUUAGGCACGGCCGCCACUGGAUUAAGAUCUUAAGUAUUAAUUAACAUGAGUGAUGUUCAUGCCAGGACCGGGUGACUACCAU [KL-SSTryp-B11]	K4 kissing-loop RNA reporter	c2
CGCGCGUGAGGACUUGCCCUUCAUGGAGAUACCAGCCAGUAUGCGGGCCCUUGGCAGCUCGAGUGAUGUUCGAGUUUAAGGCAAA [Riesla]	K4 kissing-loop RNA reporter	c1
GUACGCUCUCGAGUGAUGUUCGGUAAUAGAGAGGAUAUCGCUUUUGCGAGAAGGCUCUGAAUGAGGAAACUCGUUCUGAGUGUAC [FMN A 19]	K4 kissing-loop RNA reporter	c3
UCCACGCUUAGAGGAUAUCGGAUUAGAGUGAUGUUCUAAAGACGCCCAGUGAUGUUGGAUGGUAUACGAGAAGGCUGUGGCGUGU [Same State FMN B GF5]	K4 kissing-loop RNA reporter	c3
UUUAUAUUCUGAGGAUAUCGUAUUAAUGAAGUGAUGUUUCAGUAUAUUCUAAUUAUAUAUAAUUUUCGAGAAGGCAGUAUUAUUU [JR_Nu3_SSFMNB_Sub028]	K4 kissing-loop RNA reporter	c2
AACGUGGCCAAAGGAUAUCUCCCUACGUCGUUGCAUCUACCUCUGUUUGCUCUGAGUGAUGUUUGGAGAGAAGGUUGAGGCGAUU [theeternabot_exclusion_KL_FMN_B_29]	K4 kissing-loop RNA reporter	c3
CAUACGCAUGGAGGAUAUGAGAUUACUCGUAUCAUUUAAUAUUCUCAGUGAUGUUGAGAUUUGGGCUCAGAAGGCCAUGUGUAUG [Ex FMN B 16]	K4 kissing-loop RNA reporter	c2
UUGCGGAGUGAUGUUUCGGGAUAUCGGGAAGGAGCGCCGAUAACGGCAGGUAGGUCGCCCGGUCCAGUGAUGUUGGGCAUGCAUU [Exclusion Arg A GF 23]	K4 kissing-loop RNA reporter	c1
GAAGGUCAAAGACCUUCGUGCACAUCUGAUACCAGUCGCGAAAGCGACCCUUGGCAGCAGGGCAGUGAUGUUGCCAGUGCACAAA [Omei KL Theo A SS A v4]	K4 kissing-loop RNA reporter	c2
AACUGUCAAGGACAACAUUACUGAAGUGAUACCAGCAUCGAAAGAUGCCCUUGGCAGCACUGACUUGCAGUGAUGUUGCAAGUAA [BrourdMod 7 - Jieux - Exclusion - Theophylline A]	K4 kissing-loop RNA reporter	c1
CGGAUGUAGUGAUGUUAUAUUAGAUGUAGACGAGGACCGGUACGGCCGCCACUCGUGACGGCUGCUAGCGCGUUGCGAGGUUUGC [ExTryptoA.Cn]	K4 kissing-loop RNA reporter	c3
AAGCAGUCACUCGAAGCCAUCGAAGAUGGUCGAGGACCGGUACGGCCGCCACUCGGAGUGAUGUUCCGAAGACUGCAAAAUAAAA [#SwitchBubble 11]	K4 kissing-loop RNA reporter	c2
AACCUUGUAGUGAUGUUGCAAGGCGCUGAUACCAGUCACAGCCACGACCCUUGGCAGCAGUGGCGUUCAUGAUAAAAUAGAUUAA [theeternabot_sameState_KL_Theo_A_49]	K4 kissing-loop RNA reporter	c1
GUGGUUUACGUAGGAUAUCGGUGAUGAGUAAAUGGAGUGAUGUUCCGAGAUUGAAUAUGAGAUGAGCGAGAAGGGCGGUUUAUGC [FMN B Same State; Euporia Solution 3]	K4 kissing-loop RNA reporter	c1
UUAGUCUAGAGAAGGAGCGCAGUGAUGUUGCGGUAUGUGAAAAUAUGUAUAUAAUAAUAAAUGCAGGUAGGUCGCUCUAGACAUU [AK2 Exc Arginine B]	K4 kissing-loop RNA reporter	c1
UAAGAUAUGAGGGAUACCAGCCAUAAGGAAAGUGUGAUGAGUGAUGUUCUGACAAGCCAAGGCCCUUGGCAGCUUUAAUAGCAUC [whbob_SS_Theo_B_th76]	K4 kissing-loop RNA reporter	c1
